Test: Plasma pharmacokinetics, Cycle 1 (LC-MS, non-compartmental)
Assay type: in vivo, human
Conditions: human, plasma, po, 3 mg, Cycle 1 Day 1; 3 mg daily oral; read-out: T max, Mean ± SD
Assay Endpoint: Tmax
Answer format reminder: number followed by unit.

I have this compound here, CC(C)n1nc(-c2ccc3oc(N)nc3c2)c2c(N)ncnc21 , and I need its recorded Tmax. 1.7 h

---

Assay: Plasma pharmacokinetics, Cycle 1 (LC-MS, non-compartmental)
Format: in vivo, human
Details: human, plasma, oral, 3 mg, after 7 days of dosing; read-out: median trough concentration
Assay Endpoint: concentration at 7 days (ng/mL)
The answer is to be given in ng/mL; state only the numeric part.

I have this compound here, CC(C)n1nc(-c2ccc3oc(N)nc3c2)c2c(N)ncnc21 , and I need its recorded concentration at 7 days. 1.9
